- Assay comment: UWB1.289 ovarian carcinoma cell growth inhibition, synergistic combos for chromothripsis tumors, BGB or cisplatin combos (AID 1671456);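 note: cells exposed to compound for four days; 0% = vehicle DMSO and 100% = killing by high DMSO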
- Run parameters: UWB1.289 ovarian carcinoma cells, measured here: inhibition with cisplatin combination, at 0.05 µM, stronger effect = higher value
Observed property: inhibition (%)

- Compound: "CN1CCN(c2c(F)cc3c(=O)c(C(=O)O)cn4c3c2OCN4C)CC1"
  Observed property: "inhibition"
  Value unit: "%"
  Value reported: 9.55
- Compound: "N=C(N=C(N)N)N1CCOCC1"
  Observed property: "inhibition"
  Value unit: "%"
  Value reported: 3.05
- Compound: "Nc1ncn([C@H]2C[C@H](O)[C@@H](CO)O2)c(=O)n1"
  Observed property: "inhibition"
  Value unit: "%"
  Value reported: -1.44
- Compound: "O=c1cc[nH]c(=O)[nH]1"
  Observed property: "inhibition"
  Value unit: "%"
  Value reported: -27.8
- Compound: "C[C@@H](CN1CC(=O)NC(=O)C1)N1CC(=O)NC(=O)C1"
  Observed property: "inhibition"
  Value unit: "%"
  Value reported: -21.4
- Compound: "CC1(C(=O)O)CCC2(C)CCC3(C)C(=CC(=O)C4C5(C)CCC(OC(=O)CCC(=O)O)C(C)(C)C5CCC43C)C2C1 (configuration not stated)"
  Observed property: "inhibition"
  Value unit: "%"
  Value reported: -15.6
- Compound: "N=c1ccn2c(n1)O[C@H]1[C@H](O)[C@@H](CO)O[C@H]12"
  Observed property: "inhibition"
  Value unit: "%"
  Value reported: -14.8
- Compound: "COc1c2ccoc2cc2oc(=O)ccc12"
  Observed property: "inhibition"
  Value unit: "%"
  Value reported: -7.34
- Compound: "CN1CCN(c2c(F)cc3c(=O)c(C(=O)O)cn(CCF)c3c2F)CC1"
  Observed property: "inhibition"
  Value unit: "%"
  Value reported: 3.11
- Compound: "O=c1[nH]c(=O)n([C@H]2C[C@H](O)[C@@H](CO)O2)cc1C(F)(F)F"
  Observed property: "inhibition"
  Value unit: "%"
  Value reported: -6.35
- Compound: "CN1C[C@@H]2C[C@H]1CN2c1cc2c(cc1F)c(=O)c(C(=O)O)cn2C1CC1"
  Observed property: "inhibition"
  Value unit: "%"
  Value reported: -20.1
- Compound: "O=c1[nH]c(=O)n([C@H]2C[C@H](O)[C@@H](CO)O2)cc1Br"
  Observed property: "inhibition"
  Value unit: "%"
  Value reported: -5.15

----------
- Assay comment: differential killing of epithelial or mesenchymal cells, primary screen, imaging, PC-3E GFP, TEM4-18 mCherry, co-culture (AID 1345086);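 note: cells exposed to compound for 72 h before imaging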
- Run parameters: imaging cell counts, measured here: epithelial PC-3E GFP cell survival, at 1 µM
Entry flag: true if normalised cell number reaches 1; false if it does not.

- Molecule: "CC(C)(C)NC[C@H](O)c1ccc(O)c(CO)c1"
  Category label: "true"
- Molecule: "Cc1occc(=O)c1O"
  Category label: "true"
- Molecule: "Cc1c(N)c(=O)n(-c2ccccc2)n1C"
  Category label: "true"
- Molecule: "O=C(CCc1ccc(O)cc1)c1c(O)cc(O)cc1O[C@@H]1O[C@H](CO)[C@@H](O)[C@H](O)[C@H]1O"
  Category label: "false"
- Molecule: "CCN1C(=O)NC(c2ccccc2)C1=O (stereo not given)"
  Category label: "true"
- Molecule: "O=C(Oc1cc(O)cc2c1C[C@@H](OC(=O)c1cc(O)c(O)c(O)c1)[C@@H](c1cc(O)c(O)c(O)c1)O2)c1cc(O)c(O)c(O)c1"
  Category label: "false"
- Molecule: "Nc1ccc(S(=O)(=O)Nc2ncccn2)cc1"
  Category label: "false"

----------
- Measured on: ATP-dependent translocase ABCB1 (Homo sapiens)
- Assay comment: MDR1 (ABCB1) efflux transporter inhibition, cell-based (AID 377)
- Run parameters: MDR1-expressing cells, fluorescent substrate accumulation slope; stronger effect = higher value; concentration not given here
Inconclusive results are not listed.
Decide by fluorescence slope change: equal to or exceeding 20% means met, less means not met.

- Molecule: "OCCN1CCN(CC/C=C2/c3ccccc3Sc3ccc(C(F)(F)F)cc32)CC1"
  Category label: "met"
- Molecule: "O=C(/C=C/c1ccc(O)c(O)c1)O[C@@H]1C[C@](O)(C(=O)O)C[C@@H](O)[C@H]1O"
  Category label: "not met"
- Molecule: "CCC(c1ccc(O)cc1)C(CC)c1ccc(O)cc1 (stereo unspecified)"
  Category label: "not met"
- Molecule: "C#CC1(O)CC[C@H]2[C@@H]3CCC4=CCCC[C@@H]4[C@H]3CC[C@@]21C (stereo partly specified)"
  Category label: "met"
- Molecule: "C[C@@H]1O[C@@H](O[C@H]2[C@H](Oc3cc(O)c4c(c3)O[C@H](c3ccc(O)cc3)CC4=O)O[C@H](CO)[C@@H](O)[C@@H]2O)[C@H](O)[C@H](O)[C@H]1O"
  Category label: "met"
- Molecule: "O=C(O)COCCN1CCN(C(c2ccccc2)c2ccc(Cl)cc2)CC1 (stereo unspecified)"
  Category label: "met"

----------
- Assay comment: growth inhibition of GSK3B-pretreated HCT116 cells – cell-based, CellTiter-Glo, 0.2 to 20 µM (AID 1117336)
- Run parameters: HCT116 viability after GSK3B inhibitor, at 20 µM
Calls of active or inactive are those of the source.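 How the source made its calls: active means compounds lowering colon cancer cell viability after pretreatment blocking the GSK3B kinase; inactive means the rest.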
Outcomes: active, inactive

- Compound: "O=S(=O)(c1cccc2cnccc12)N1CCCNCC1"
  Category label: "inactive"
- Compound: "O=C(NCC1CN(c2ccc(N3CCOCC3=O)cc2)C(=O)O1)c1ccc(Cl)s1 (stereo not drawn)"
  Category label: "active"
- Compound: "CC1(C)CCC(C)(C)c2cc(NC(=O)c3ccc(C(=O)O)cc3)ccc21"
  Category label: "active"

----------
- Assay comment: CellTiter-Glo luminescent readout of SW480 viability loss, NPC library primary (AID 1117343)
- Run parameters: CellTiter-Glo luminescence; at 20 µM (top of the series) unless noted
Strictly below 20% in viability decrease (inhibition): class 1. Otherwise: class 0.

- Compound: "CN(C)[C@@H](CCOc1cccc2ccccc12)c1ccccc1"
  Category label: "class 0"
- Compound: "CCN(CC)C(=O)/C(C#N)=C/c1cc(O)c(O)c([N+](=O)[O-])c1"
  Category label: "class 0"
- Compound: "CC(C)NC[C@@H](O)COc1ccc(CC(N)=O)cc1"
  Category label: "class 1"
- Compound: "CO/N=C(\\C(=O)N[C@@H]1C(=O)N2C(C(=O)O)=C(CSc3nc(=O)c(O)nn3C)CS[C@H]12)c1csc(N)n1"
  Category label: "class 1"
- Compound: "C#CC1(O)CC[C@H]2[C@@H]3CCC4=CCCC[C@@H]4[C@H]3CC[C@@]21C (stereo partly drawn)"
  Category label: "class 0"
- Compound: "NCCCNCCSP(=O)(O)O"
  Category label: "class 1"
- Compound: "C[C@H](NCCc1ccc(O)cc1)[C@H](O)c1ccc(O)cc1"
  Category label: "class 1"
- Compound: "CN1CCCN=C1/C=C/c1cccs1"
  Category label: "class 1"
- Compound: "O=C(NOCC1CC1)c1ccc(F)c(F)c1Nc1ccc(I)cc1Cl"
  Category label: "class 0"
- Compound: "CN(C(=O)c1c(O)c2ccccc2n(C)c1=O)c1ccccc1"
  Category label: "class 1"
- Compound: "CC(C(=O)O)c1ccc2c(c1)Cc1cccnc1O2 (stereo not drawn)"
  Category label: "class 1"
- Compound: "CN(CCCCCCCCCCN(C)C(=O)Oc1cccc([N+](C)(C)C)c1)C(=O)Oc1cccc([N+](C)(C)C)c1"
  Category label: "class 0"
- Compound: "O=C1NCN(c2ccccc2)C12CCN(CCCC(c1ccc(F)cc1)c1ccc(F)cc1)CC2"
  Category label: "class 0"
- Compound: "CN(C)CCN1C(=O)c2ccccc2N(C)c2ccccc21"
  Category label: "class 0"
- Compound: "CCOc1ccc(NC(=O)CC(C)O)cc1 (stereo not drawn)"
  Category label: "class 1"
- Compound: "COc1ccc(C=CC(=O)Nc2ccccc2C(=O)O)cc1OC"
  Category label: "class 1"
- Compound: "CC(=O)OCC(=O)[C@@]1(O)CCC2C3CCC4=CC(=O)CC[C@]4(C)C3[C@@H](O)C[C@@]21C (stereo partly drawn)"
  Category label: "class 1"
- Compound: "CN(C)CCOC1=Cc2ccccc2Sc2ccc(Cl)cc21"
  Category label: "class 0"

----------
- Assay comment: inhibition of endothelial tube formation, primary screen, imaging, VEGF stimulated, CD31 staining, tube area, NPC library (AID 1117340)
- Run parameters: VEGF-stimulated ADSC/ECFC co-culture, at 10 µM
Active and inactive are the calls of the source.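 How the source made its calls: active means compound that reduces growth-factor-driven endothelial tube area in a mixed cell culture, no cutoff stated; inactive means the rest.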
Classes used: true (1) for active, false (0) for inactive

- Compound: "NC(=O)n1c(O)c(C(=O)c2cccs2)c2cc(Cl)ccc21"
  Category label: "true (1)"
- Compound: "NCCNC(=O)c1ccc(Cl)cn1"
  Category label: "false (0)"
- Compound: "O=C(O)Cc1ccc(OCCNC[C@H](O)c2ccccc2)cc1"
  Category label: "false (0)"
- Compound: "CC(C)NC[C@@H](O)COc1ccc(CC(N)=O)cc1"
  Category label: "false (0)"
- Compound: "CCOC(=O)[C@H](CCc1ccccc1)N[C@@H](C)C(=O)N1Cc2cc(OC)c(OC)cc2C[C@H]1C(=O)O"
  Category label: "true (1)"
- Compound: "O=S(=O)(c1cccc2cnccc12)N1CCCNCC1"
  Category label: "false (0)"
- Compound: "O=c1[nH]c2cc(C(F)(F)F)c(N3CCOCC3)cc2n(CP(=O)(O)O)c1=O"
  Category label: "false (0)"
- Compound: "CCOC(=O)c1ccc(C#Cc2ccc3c(c2)C(C)(C)CCS3)nc1"
  Category label: "false (0)"
- Compound: "Cc1cc(CC(C)CC(C)(C)C)n(O)c(=O)c1 (stereo unspecified)"
  Category label: "true (1)"
- Compound: "CCOc1ccccc1C(N)=O"
  Category label: "false (0)"
- Compound: "CSc1ccc(C(=O)c2[nH]c(=O)[nH]c2C)cc1"
  Category label: "false (0)"
- Compound: "CC(C)(Oc1ccc(C2CC2(Cl)Cl)cc1)C(=O)O (stereo unspecified)"
  Category label: "false (0)"
- Compound: "CC1=C(C/C=C(\\C)CCC[C@H](C)CCC[C@H](C)CCCC(C)C)C(=O)c2ccccc2C1=O"
  Category label: "false (0)"
- Compound: "CCOC(=O)Nc1ccc(NCc2ccc(F)cc2)nc1N"
  Category label: "false (0)"
- Compound: "CCOC(=O)c1cnc2c(cnn2CC)c1NN=C(C)C"
  Category label: "false (0)"
- Compound: "CC(=O)N[C@@H](CC(C)C)C(=O)O"
  Category label: "false (0)"
